molecular target: T1, HLA-A*0201 loaded with the Carcinoembryonic antigen (CEA)-derived … peptide (biotin on the C-terminal biotinylation tag); test: Biacore SPR
T1 construct: Soluble, biotinylated, immobilised on a streptavidin chip
parameter.measured: koff

{"columns": ["binder", "parameter.measured", "measured"],
 "data": [
  ["SEQ ID NO 71 (receptor, mutated soluble two domain ILT-2) MGHLPKPTLWAEPGSVITQGSPVTLRCQGGQETQEYRLYREKKTAPWITRIPQELVKKGQFPIPSITWEHAGRYRCYYGSQGGLRSESSDPLELVVTGVYIKPTLSAQPSPVVNSGGNVTLQCDSQVAFDGFILCKEGEDEHPQCLNSQPHARGSSRAIFSVGPVSPSRRWWYRCYAYDSNSPYEWSLPSDLLELLVL", "koff", "≤ 2 s⁻¹"],
  ["SEQ ID NO 75 (receptor, mutated soluble two domain ILT-2) MGHLPKPTLWAEPGSVITQGSPVTLRCQGGQETQEYRLYREKKTAPWITRIPQELVKKGQFPIPSITWEHAGRYRCYYGSQGGLRSESSDPLELVVTGAYIKPTLSAQPSPVVNSGGNVTLQCDSQVAFDGFILCKEGEDEHPQCLNSQPHARGSSRAIFSVGPVSPSRRWWYRCYAYDSNSPYEWSLPSDLLELLVL", "koff", "≤ 2 s⁻¹"],
  ["SEQ ID NO 84 (receptor, mutated soluble two domain ILT-2) MGHLPKPTLWAEPGSVITQGSPVTLRCQGGQETQEYRLYREKKTAPWITRIPQELVKKGQFPIPSITWEHAGRYRCYYGSDTAGRSESSDPLELVVTGIYKAPTLSAQPSPVVNSGGNVTLQCDSQVAFDGFILCKEGEDEHPQCLNSQPHARGSSRAIFSVGPVSPSRRWWYRCYAYDSNSPYEWSLPSDLLELLVL", "koff", "≤ 2 s⁻¹"]
]}
